target-of-assay: Muscarinic acetylcholine receptor M5 (Homo sapiens)
assay-name: human M5 muscarinic receptor antagonists, cell-based, single concentration, CHO-K1 hM5, ACh EC80 (AID 743107)
experimental-setup: CHO-K1 hM5, calcium flux, at 10 µM, hits give low values
Cut-off 80% on activity remaining: below means yes, at or above means no.

* CC(=O)c1cccc(OCc2cc(C(=O)N(C)C(C)c3ccccc3)no2)c1 (stereo unspecified) | yes

Please let me know if COc1ccc(OCc2cc(C(=O)N(C)C(C)c3ccccn3)no2)cc1 (stereo unspecified) shows activity remaining below 80%.
no

Now consider CC(=O)c1cccc(OCc2cc(C(=O)N3CCc4cccnc4C3)no2)c1 and answer again.
no

Now consider Cc1cccc(C(=O)NCc2cc(C(=O)N(C)C(C)c3ccccn3)no2)c1 (stereo unspecified) and answer again.
yes

Now consider CC(c1ccccn1)N(C)C(=O)c1cc(COc2cccc([N+](=O)[O-])c2)on1 (stereo unspecified) and answer again.
yes

Now consider CC(=O)c1cccc(N(Cc2cc(C(=O)N(C)C(C)c3ccccn3)no2)C(=O)C(C)(C)C)c1 (stereo unspecified) and answer again.
yes

Now consider CC(=O)c1cccc(N(Cc2cc(C(=O)N(C)C(C)c3ccccn3)no2)C(=O)c2ccc(F)cc2)c1 (stereo unspecified) and answer again.
yes

---

target-of-assay: Muscarinic acetylcholine receptor M5 (Homo sapiens)
assay-name: human M5 muscarinic receptor antagonists, cell-based, single concentration, CHO-K1 hM5, ACh EC80 (AID 743107)
experimental-setup: CHO-K1 hM5, calcium flux, at 10 µM, hits give low values
Overview of recorded activity remaining for various compounds
The reply should contain only the number, in %.

* CC(=O)c1cccc(N(Cc2cc(C(=O)N(C)C(C)c3ccccn3)no2)C(=O)c2cccc(F)c2)c1 (stereo not given) | 70
* CC(=O)c1cccc(N(Cc2cc(C(=O)N(C)C(C)c3ccccn3)no2)C(=O)C2CCCC2)c1 (stereo not given) | 66
* CC(=O)c1cccc(N(Cc2cc(C(=O)N(C)C(C)c3ccccn3)no2)C(C)=O)c1 (stereo not given) | 70.4
* CC(c1ccccn1)N(C)C(=O)c1cc(COc2cccc(Br)c2)on1 (stereo not given) | 71.7
* CC(c1ccccn1)N(C)C(=O)c1cc(CNC(=O)c2ccccc2)on1 (stereo not given) | 76.7

Now turn to the next compound.
# activity remaining lookup, item CC(=O)c1cccc(OCc2cc(C(=O)N(C)c3ccccn3)no2)c1
77.8

---

target-of-assay: Muscarinic acetylcholine receptor M5 (Homo sapiens)
assay-name: human M5 muscarinic receptor antagonists, cell-based, single concentration, CHO-K1 hM5, ACh EC80 (AID 743107)
experimental-setup: CHO-K1 hM5, calcium flux, at 10 µM, hits give low values
Calls of active or inactive are those of the source.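 The calls were made as follows: active = compound leaving under 60% of the human M5 receptor calcium signal; inactive = the rest.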
assay-metric: activity remaining

Answered examples (2):
- CC(c1ccccn1)N(C)C(=O)c1cc(COc2ccc(F)cc2)on1 (centres undefined): 82.2% (inactive)
- COc1cccc(OCc2cc(C(=O)N(C)C(C)c3ccccn3)no2)c1 (centres undefined): 79.8% (inactive)

# activity remaining lookup, item Cc1ccc(OCc2cc(C(=O)N(C)C(C)c3ccccn3)no2)cc1 (centres undefined)
78.5% (inactive)

Now consider CCOc1cccc(OCc2cc(C(=O)N(C)C(C)c3ccccn3)no2)c1 (centres undefined) and answer again.
79.2% (inactive)

Now consider CC(c1ccccn1)N(C)C(=O)c1cc(COc2ccc3c(c2)CCCC3)on1 (centres undefined) and answer again.
79% (inactive)

Now consider CC(c1ccccn1)N(C)C(=O)c1cc(CNC(=O)c2ccccc2F)on1 (centres undefined) and answer again.
71.8% (inactive)

Now consider CC(c1ccccn1)N(C)C(=O)c1cc(COc2ccc(F)c(F)c2)on1 (centres undefined) and answer again.
85.3% (inactive)

Now consider CC(c1ccccn1)N(C)C(=O)c1cc(COc2cccc(CO)c2)on1 (centres undefined) and answer again.
75.5% (inactive)

Now consider CC(=O)c1cccc(OCc2cc(C(=O)N(C)Cc3ccccc3)no2)c1 and answer again.
76.6% (inactive)

Now consider CC(c1ccccn1)N(C)C(=O)c1cc(CNC(=O)C2CCCC2)on1 (centres undefined) and answer again.
77.7% (inactive)

Now consider CC(=O)c1cccc(N(Cc2cc(C(=O)N(C)C(C)c3ccccn3)no2)C(=O)c2ccc(C)cc2)c1 (centres undefined) and answer again.
63.5% (inactive)

Now consider CC(c1ccccn1)N(C)C(=O)c1cc(CNS(C)(=O)=O)on1 (centres undefined) and answer again.
80.4% (inactive)

Now consider CC(c1ccccn1)N(C)C(=O)c1cc(COc2ccc(Cl)cc2)on1 (centres undefined) and answer again.
84.2% (inactive)

Now consider CC(=O)c1cccc(N(Cc2cc(C(=O)N(C)C(C)c3ccccn3)no2)C(=O)c2ccccc2F)c1 (centres undefined) and answer again.
74.8% (inactive)

Reference source: PubChem BioAssay AID743107
